- Tested on: P. falciparum Dd2
- assay-procedure: P. falciparum Dd2 asexual blood stage SYBR Green I compound sensitivity assay
- Assay type: cell-based, Plasmodium falciparum
- assay-context: Plasmodium falciparum, DD2, 72 h, asexual blood stage, 72 hour SYBR green assay
measured-parameter: pIC50
pIC50 here is simply -log10 of the concentration when that concentration is written in mol/L.

*Q* Name the recorded pIC50 of the item CCCCCC(=O)N[C@@H](Cc1c[nH]c2ccccc12)C(=O)N[C@@H](Cc1c[nH]c2ccccc12)C(=O)N[C@@H](Cc1ccccc1)C(=O)[C@@]1(C)CO1 in your answer.
*A* 8.03

*Q* Name the recorded pIC50 of the item CCCCCC(=O)N[C@@H](Cc1ccc(N)cc1)C(=O)N[C@@H](CCCC)C(=O)N[C@@H](CC(C)C)C(=O)[C@@]1(C)CO1 in your answer.
*A* 8.22

*Q* Name the recorded pIC50 of the item CCCCCC(=O)N[C@@H](C(=O)N[C@@H](CCCC)C(=O)N[C@@H](CC(C)C)C(=O)[C@@]1(C)CO1)C(C)C in your answer.
*A* 8.49

Origin of the recorded values: patent US11357817B2
